- reportedConditions: buffer, pH 7.4
- Description: Kinetic solubility of the compound at pH 7.4
observable: Kinetic_solubility (µM)
# number only, unit µM dropped from output

Look up Kinetic_solubility of CN1CCN(c2ccc(Nc3cc(-c4cc(F)cc(N5CCn6c(cc7c6CCCC7)C5=O)c4CO)cn(C)c3=O)nc2)CC1 and report it.
71

Please give measured Kinetic_solubility of the following entry: Cn1cc(-c2cccc(N3CCn4c(cc5c4CCCC5)C3=O)c2CO)cc(Nc2ccc(N3CCN(C4COC4)CC3)cn2)c1=O
99

Please supply the value of reported Kinetic_solubility for the item CN1CCN(c2ccc(Nc3cc(-c4cccc(N5CCn6c(cc7c6CCCC7)C5=O)c4CO)cn(C)c3=O)nc2)CC1
115

Identify the reported Kinetic_solubility for the following entry. Cn1cc(-c2cccc(N3CCc4cc(C(C)(C)C)ccc4C3=O)c2CO)cc(Nc2ccncn2)c1=O
2

Look up and report measured Kinetic_solubility for this entry: Cn1cc(-c2cc(F)cc(N3CCn4c(cc5c4CCCC5)C3=O)c2CO)cc(Nc2ccc(N3CCN(C4COC4)CC3)cn2)c1=O
73

====

Item-by-item account of log10 of clearance
- assayOverview: Total clearance in rat at 1 mg/kg, iv
- Format: ADME, organism-based
- reportedConditions: in vivo
// stored as log10 of clearance expressed in mL/min/kg

// known answers, use as guide
> print(dat)
                          compoundstructure  recordedresult
1  Cc1c(NC(=O)c2cc3c(s2)CCCC3)cccc1-c1cc(Nc2ccncn2)c(=O)n(C)c1            0.30
2  CN1CCN(c2ccc(Nc3cc(-c4cccc(N5CCc6c(sc7c6CC(C)(C)C7)C5=O)c4CO)cn(C)c3=O)nc2)CC1            1.46
3  CN1CCN(c2ccc(Nc3cc(-c4cc(F)cc(N5CCn6c(cc7c6CCCC7)C5=O)c4CO)cn(C)c3=O)nc2)CC1            1.57
4  Cn1cc(-c2cc(F)cc(N3CCn4c(cc5c4CCCC5)C3=O)c2CO)cc(Nc2ccc(N3CCN(C4COC4)CC3)cn2)c1=O            1.30
5  CN1CCN(c2ccc(Nc3cc(-c4cccc(N5CCn6c(cc7c6CCCC7)C5=O)c4CO)cn(C)c3=O)nc2)CC1            1.60

Alright, here's another compound for you.
Specify measured log10 of clearance for Cn1cc(-c2cccc(N3CCn4c(cc5c4CCCC5)C3=O)c2CO)cc(Nc2ccc(N3CCN(C4COC4)CC3)cn2)c1=O .
1.15

====

Quick record of pIC50 values for Tyrosine-protein kinase BTK (Mus musculus).
API: returns pIC50 as number; meaning -log10 of concentration in mol/L.

Query pIC50 for CN1CCN(c2ccc(Nc3cc(-c4cccc(N5CCn6c(cc7c6CCCC7)C5=O)c4CO)cn(C)c3=O)nc2)CC1
6.97

====

- assayOverview: Oral bioavailability in rat at 5 mg/kg
- Assay type: ADME, organism-based
- reportedConditions: in vivo
observable: bioavailability (%)
Provide only the numeric value, understood in %.

> print(dat)
                          compoundstructure  recordedresult
1  CN1CCN(c2ccc(Nc3cc(-c4cccc(N5CCc6c(sc7c6CC(C)(C)C7)C5=O)c4CO)cn(C)c3=O)nc2)CC1              37
2  Cc1c(NC(=O)c2cc3c(s2)CCCC3)cccc1-c1cc(Nc2ccncn2)c(=O)n(C)c1              45
3  Cn1cc(-c2cccc(N3CCn4c(cc5c4CCCC5)C3=O)c2CO)cc(Nc2ccc(N3CCN(C4COC4)CC3)cn2)c1=O              46

Next molecule, bioavailability to be filled in.
State, in one line, measured bioavailability of CN1CCN(c2ccc(Nc3cc(-c4cccc(N5CCn6c(cc7c6CCCC7)C5=O)c4CO)cn(C)c3=O)nc2)CC1
20
